test target: TACE (Homo sapiens)
assay overview: TACE inhibition (fluorescent peptidyl substrate)
Format: biochemical
condition summary: read-out: TACE IC50
Structures can show the parent of a compound that is named as a salt.
property name: log10 IC50 (log10 of the value in µM)

compound	test target	property name	numeric result
COc1ccc(S(=O)(=O)N(Cc2cccnc2)c2c(C(=O)NO)cccc2C(=O)OC(C)(C)C)cc1 [Example 367]	TACE (Homo sapiens)	log10 IC50	0.43
COc1ccc(S(=O)(=O)N(Cc2cccnc2)c2c(C)cc(-c3cccc([N+](=O)[O-])c3)cc2C(=O)NO)cc1 [Example 400, hydrochloride salt]	TACE (Homo sapiens)	log10 IC50	-0.64
COc1ccc(S(=O)(=O)N(C)c2c(CN3CCCC3)cccc2C(=O)NO)cc1 [Example 310]	TACE (Homo sapiens)	log10 IC50	-0.81
CCN(c1c(C)cc(C)cc1C(=O)NO)S(=O)(=O)c1ccc(OC)cc1 [Example 131]	TACE (Homo sapiens)	log10 IC50	-1.10
COc1ccc(S(=O)(=O)N(C)c2c(CCC(=O)NO)cc(Br)cc2C(=O)NO)cc1 [Example 349]	TACE (Homo sapiens)	log10 IC50	-1.49
COc1ccc(S(=O)(=O)N(Cc2ccccc2)c2c(CN3CCN(C)CC3)cccc2C(=O)NO)cc1 [Example 329]	TACE (Homo sapiens)	log10 IC50	-0.76

---

test target: TACE (Homo sapiens, UniProt P78536)
Sequence (P78536 215-824): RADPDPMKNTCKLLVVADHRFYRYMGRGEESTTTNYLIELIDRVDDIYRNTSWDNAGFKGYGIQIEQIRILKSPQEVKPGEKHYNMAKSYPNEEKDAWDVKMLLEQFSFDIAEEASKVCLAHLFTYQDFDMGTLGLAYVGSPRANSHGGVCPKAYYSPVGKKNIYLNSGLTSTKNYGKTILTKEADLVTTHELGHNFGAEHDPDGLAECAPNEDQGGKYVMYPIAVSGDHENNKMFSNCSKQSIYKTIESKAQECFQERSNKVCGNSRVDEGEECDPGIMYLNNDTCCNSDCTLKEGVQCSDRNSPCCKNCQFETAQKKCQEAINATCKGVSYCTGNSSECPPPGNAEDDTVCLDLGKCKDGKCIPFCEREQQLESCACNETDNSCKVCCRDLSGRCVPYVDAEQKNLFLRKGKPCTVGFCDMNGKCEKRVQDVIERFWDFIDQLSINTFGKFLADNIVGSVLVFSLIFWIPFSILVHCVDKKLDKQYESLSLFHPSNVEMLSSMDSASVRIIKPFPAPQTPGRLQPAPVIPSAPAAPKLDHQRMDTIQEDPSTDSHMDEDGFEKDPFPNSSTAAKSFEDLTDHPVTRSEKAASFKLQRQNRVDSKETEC
assay overview: TACE inhibition (fluorescent peptidyl substrate)
Type: biochemical
condition summary: read-out: TACE IC50
pIC50: −log10 of the molar value. Where a name gives a salt, the structure may show the parent alone.
property name: pIC50

compound	numeric result
COc1ccc(S(=O)(=O)N(Cc2ccncc2)c2c(C)cccc2C(=O)NO)cc1	6.19
COc1ccc(S(=O)(=O)N(Cc2cccnc2)c2c(C)cc(C)cc2C(=O)NO)cc1	7.30
COc1ccc(S(=O)(=O)N(Cc2cccnc2)c2c(C)cc(-c3ccc4c(c3)OCO4)cc2C(=O)NO)cc1 [Example 405, hydrochloride salt]	6.82
COc1ccc(S(=O)(=O)N(Cc2cccnc2)c2c(C)cc(C=CC(=O)N(C)C)cc2C(=O)NO)cc1	6.35

---

test target: UniProtKB P78536
assay overview: TACE inhibition (fluorescent peptidyl substrate)
Assay type: biochemical
condition summary: read-out: TACE IC50
pIC50: −log10 of the molar value.
Reported values of pIC50 for individual entries
property name: pIC50

compound smiles	qualifier symbol	numeric result
COc1ccc(S(=O)(=O)N(Cc2ccccc2)c2c(OC)cccc2C(=O)NO)cc1	=	6.37
COc1ccc(S(=O)(=O)N(Cc2cccnc2)c2c(C)cccc2C(=O)NO)cc1	=	6.54
COc1ccc(S(=O)(=O)N(Cc2ccccc2)c2cccc(C)c2C(=O)NO)cc1	<	6.00
COc1ccc(S(=O)(=O)N(C)c2c(CN3CCCC3)cc(Br)cc2C(=O)NO)cc1	=	7.57

---

test target: MMP-9 (Homo sapiens, UniProt P14780)
Sequence (P14780 94-707): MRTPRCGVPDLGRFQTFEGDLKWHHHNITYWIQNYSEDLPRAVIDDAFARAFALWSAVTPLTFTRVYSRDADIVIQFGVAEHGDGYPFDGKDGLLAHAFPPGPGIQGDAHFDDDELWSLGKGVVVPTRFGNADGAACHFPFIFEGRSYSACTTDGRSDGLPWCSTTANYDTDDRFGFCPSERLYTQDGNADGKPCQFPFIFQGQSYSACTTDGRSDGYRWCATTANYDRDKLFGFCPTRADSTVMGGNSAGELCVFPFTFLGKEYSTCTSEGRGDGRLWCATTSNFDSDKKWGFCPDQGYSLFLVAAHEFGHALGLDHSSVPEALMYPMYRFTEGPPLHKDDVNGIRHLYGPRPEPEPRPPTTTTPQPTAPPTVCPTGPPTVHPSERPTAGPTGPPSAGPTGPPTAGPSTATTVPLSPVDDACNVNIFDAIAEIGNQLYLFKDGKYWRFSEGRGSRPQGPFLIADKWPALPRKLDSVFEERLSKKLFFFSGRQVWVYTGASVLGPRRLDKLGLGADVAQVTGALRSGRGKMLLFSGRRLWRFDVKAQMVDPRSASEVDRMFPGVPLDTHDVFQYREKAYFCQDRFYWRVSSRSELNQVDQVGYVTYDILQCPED
assay overview: MMP-9 inhibition (thiopeptide or fluorescent peptide substrate assay)
Type: biochemical
condition summary: read-out: MMP-9 IC50
pIC50: −log10 of the molar value. Structures can show the parent of a compound that is named as a salt.

compound	pIC50
COc1ccc(S(=O)(=O)N(Cc2cccnc2)c2c(C)cc(-c3cccs3)cc2C(=O)NO)cc1 [Example 175]	8.15
COc1ccc(S(=O)(=O)N(Cc2cccnc2)c2c(C)cc(-c3ccc(C=NO)cc3)cc2C(=O)NO)cc1 [Example 249]	8.55
CCN(CC)CCOc1ccc(CN(c2c(C)cccc2C(=O)NO)S(=O)(=O)c2ccc(OC)cc2)cc1 [Example 394]	8.64
COc1ccc(S(=O)(=O)N(Cc2cccnc2)c2c(C)cc(-c3cc(-c4ccc(C)o4)no3)cc2C(=O)NO)cc1 [Example 301]	8.16
COc1ccc(S(=O)(=O)N(C)c2c(C)cc(C)cc2C(=O)NO)cc1 [Example 130]	8.40
COc1ccc(S(=O)(=O)N(Cc2cccnc2)c2c(C)cc(-c3ccc4c(c3)OCO4)cc2C(=O)NO)cc1 [Example 405, hydrochloride salt]	8.39
COc1ccc(S(=O)(=O)N(C)c2c(CCC(=O)NO)cc(Br)cc2C(=O)NO)cc1 [Example 349]	8.10
COc1ccc(S(=O)(=O)N(Cc2cccnc2)c2c(C)cc(-c3ccccc3C=NO)cc2C(=O)NO)cc1 [Example 243]	8.18
COc1ccc(S(=O)(=O)N(Cc2ccccc2)c2c(C(=O)NO)cccc2[N+](=O)[O-])cc1 [Example 170]	7.92
COCc1cccc(C(=O)NO)c1N(Cc1cccnc1)S(=O)(=O)c1ccc(OC)cc1 [Example 363]	7.70
COc1ccc(S(=O)(=O)N(Cc2cccnc2)c2c(COC3CCCCO3)cccc2C(=O)NO)cc1 (stereo not shown) [Example 339]	8.28
COc1ccc(S(=O)(=O)N(Cc2cccnc2)c2c(C)cc(-c3cc4ccccc4s3)cc2C(=O)NO)cc1 [Example 402, hydrochloride salt]	8.59
COc1ccc(S(=O)(=O)N(Cc2c(F)c(F)c(OC)c(F)c2F)c2c(C)cc(C)cc2C(=O)NO)cc1 [Example 116]	7.89
COc1ccc(S(=O)(=O)N(Cc2ccccc2)c2cccc(C)c2C(=O)NO)cc1 [Example 27]	6.36
C=CCN(CC=C)C(=O)C=Cc1cc(C)c(N(Cc2cccnc2)S(=O)(=O)c2ccc(OC)cc2)c(C(=O)NO)c1 [Example 233]	8.64
CCCCCCCCCCC#Cc1cc(C)c(N(C)S(=O)(=O)c2ccc(OC)cc2)c(C(=O)NO)c1 [Example 358]	7.00
COc1ccc(S(=O)(=O)N(Cc2ccccc2)c2c(OCCO[Si](C)(C)C(C)(C)C)cccc2C(=O)NO)cc1 [Example 344]	7.16
COc1ccc(S(=O)(=O)N(Cc2cccc(OC)c2)c2c(C)cc(C)cc2C(=O)NO)cc1 [Example 115]	7.96
CCN(Cc1ccncc1)C(=O)C=Cc1cc(C)c(N(C)S(=O)(=O)c2ccc(OC)cc2)c(C(=O)NO)c1 [Example 219]	8.17
CCN(CC)CC#CCN(c1c(C)cccc1C(=O)NO)S(=O)(=O)c1ccc(OC)cc1 [Example 381]	7.96
C#Cc1ccc(S(=O)(=O)N(Cc2cccnc2)c2c(C)cccc2C(=O)NO)cc1 [Example 413]	7.26
COc1ccc(S(=O)(=O)N(Cc2ccccc2)c2c(OCC(=O)NO)cccc2C(=O)NO)cc1 [Example 54]	8.52
COC(=O)c1cccc(C(=O)NO)c1N(C)S(=O)(=O)c1ccc(OC)cc1 [Example 373]	7.59
CCCOc1ccc(S(=O)(=O)N(Cc2ccccc2)c2c(C)cc(C)cc2C(=O)NO)cc1 [Example 303]	7.19
C=Cc1cc(C)c(N(Cc2ccccc2)S(=O)(=O)c2ccc(OC)cc2)c(C(=O)NO)c1 [Example 267]	8.52
COc1ccc(S(=O)(=O)N(Cc2ccccc2)c2c(Br)cccc2C(=O)NO)cc1 [Example 201]	7.96
COc1ccc(S(=O)(=O)N(Cc2ccccc2)c2c(OCCCC(=O)NO)cccc2C(=O)NO)cc1 [Example 58]	8.30
COc1ccc(S(=O)(=O)N(Cc2cccc(Br)c2)c2c(C)cc(C)cc2C(=O)NO)cc1 [Example 119]	7.57
COC(=O)c1cccc(C(=O)NO)c1N(Cc1cccnc1)S(=O)(=O)c1ccc(OC)cc1 [Example 369]	8.19
COc1ccc(S(=O)(=O)N(Cc2cccnc2)c2c(C)cc(C)cc2C(=O)NO)cc1 [Example 88]	7.82
COc1ccc(S(=O)(=O)N2CCCOc3cccc(C(=O)NO)c32)cc1 [Example 165]	6.54
